# experimentalSystem: human CA9 (carbonic anhydrase IX) (human, UniProt Q16790 38-414)
# method: BIAcore T100, mAb captured on anti-human IgG, antigen as analyte, 1:1 model; mAb purified by protein A (ProA)
parameter: kon (M⁻¹ s⁻¹)
One number for each entry, in M⁻¹ s⁻¹.

Notebook: zu155D5-1 (antibody, human IgG1, kappa, V domains shown, Humanized 155D5, human IgG1 kappa; Tested both protein A purified (Cys80 capped) and decapped; also called zu155D5-CXXF; zu155D5-1 (huVK1-5)) VH: QVQLVESGGGLVQPGGSLRLSCSASGFSLNSYAMIWVRQAPGKGLEYIGFITTGGTTYYADSVKGRFTISRDNSKNTLYLQMNSLRAEDTAVYYCARDRVKSYDDYGDLDAFEPWGQGTLVTVSS VL: DIQMTQSPSTLSASVGDRVTITCQASQSISSYLAWYQQKPGKAPKLLIYYASTLASGVPSRFSGSGSGTEFTLTISSLQCDDFATYYCLGVYGYSFDDGIAFGGGTKVEIKR , kon read as 1.01e+06
